- measurement parameters: lipid monolayer at air-water interface on PBS pH 7.4, peptide 1 µM, initial pressure 10-30 mN/m, extrapolated to delta pressure 0
observation type: critical pressure of insertion, POPE (mN/m)

# smiles entry, observation type, units symbol, observed
records = [
    ("CC(C)[C@H]1OC(=O)[C@H](Cc2ccccc2)N(C)C(=O)[C@@H](C(C)C)OC(=O)[C@H](Cc2ccccc2)N(C)C(=O)[C@@H](C(C)C)OC(=O)[C@H](Cc2ccccc2)N(C)C1=O", "critical pressure of insertion, POPE", "mN/m", 32.46),
    ("CC(C)[C@H]1C(=O)O[C@H](C(C)C)C(=O)N(C)[C@@H](C(C)C)C(=O)O[C@H](C(C)C)C(=O)N(C)[C@@H](C(C)C)C(=O)O[C@H](C(C)C)C(=O)N1C", "critical pressure of insertion, POPE", "mN/m", 30.15),
    ("CC[C@H](C)[C@H]1C(=O)O[C@H](C(C)C)C(=O)N(C)[C@@H](C(C)C)C(=O)O[C@H](C(C)C)C(=O)N(C)[C@@H](C(C)C)C(=O)O[C@H](C(C)C)C(=O)N1C", "critical pressure of insertion, POPE", "mN/m", 31.87),
    ("CC[C@H](C)[C@H]1C(=O)O[C@H](C(C)C)C(=O)N(C)[C@@H]([C@@H](C)CC)C(=O)O[C@H](C(C)C)C(=O)N(C)[C@@H]([C@@H](C)CC)C(=O)O[C@H](C(C)C)C(=O)N1C", "critical pressure of insertion, POPE", "mN/m", 38.12),
    ("CC[C@H](C)[C@H]1C(=O)O[C@H](C(C)C)C(=O)N(C)[C@@H]([C@@H](C)CC)C(=O)O[C@H](C(C)C)C(=O)N(C)[C@@H](C(C)C)C(=O)O[C@H](C(C)C)C(=O)N1C", "critical pressure of insertion, POPE", "mN/m", 34.38),
]

###

- System: human erythrocytes
- measurement parameters: pH 7.4
Quick rule for you: HC50 (dose causing 50% hemolysis), Erythrocytes under 200 µM gets Satisfied, anything else gets Not satisfied.

# compound, category
measured = [
    ("CC(C)[C@H]1C(=O)O[C@H](C(C)C)C(=O)N(C)[C@@H](C(C)C)C(=O)O[C@H](C(C)C)C(=O)N(C)[C@@H](C(C)C)C(=O)O[C@H](C(C)C)C(=O)N1C [ENN B]", "Not satisfied"),
    ("CC[C@H](C)[C@H]1C(=O)O[C@H](C(C)C)C(=O)N(C)[C@@H](C(C)C)C(=O)O[C@H](C(C)C)C(=O)N(C)[C@@H](C(C)C)C(=O)O[C@H](C(C)C)C(=O)N1C [ENN B1]", "Not satisfied"),
    ("CC(C)[C@H]1OC(=O)[C@H](Cc2ccccc2)N(C)C(=O)[C@@H](C(C)C)OC(=O)[C@H](Cc2ccccc2)N(C)C(=O)[C@@H](C(C)C)OC(=O)[C@H](Cc2ccccc2)N(C)C1=O [BEA, Beauvericin]", "Satisfied"),
    ("CC[C@H](C)[C@H]1C(=O)O[C@H](C(C)C)C(=O)N(C)[C@@H]([C@@H](C)CC)C(=O)O[C@H](C(C)C)C(=O)N(C)[C@@H](C(C)C)C(=O)O[C@H](C(C)C)C(=O)N1C [ENN A1]", "Satisfied"),
    ("CC[C@H](C)[C@H]1C(=O)O[C@H](C(C)C)C(=O)N(C)[C@@H]([C@@H](C)CC)C(=O)O[C@H](C(C)C)C(=O)N(C)[C@@H]([C@@H](C)CC)C(=O)O[C@H](C(C)C)C(=O)N1C [ENN A]", "Satisfied"),
]

###

- System: A. niger (ATCC 9142)
- measurement parameters: ATCC 9142, pH 7

# smiles entry, MIC, A. niger
rows = [
    ("CC(C)[C@H]1OC(=O)[C@H](Cc2ccccc2)N(C)C(=O)[C@@H](C(C)C)OC(=O)[C@H](Cc2ccccc2)N(C)C(=O)[C@@H](C(C)C)OC(=O)[C@H](Cc2ccccc2)N(C)C1=O", ">100 µM"),
    ("CC[C@H](C)[C@H]1C(=O)O[C@H](C(C)C)C(=O)N(C)[C@@H](C(C)C)C(=O)O[C@H](C(C)C)C(=O)N(C)[C@@H](C(C)C)C(=O)O[C@H](C(C)C)C(=O)N1C", ">100 µM"),
    ("CC(C)[C@H]1C(=O)O[C@H](C(C)C)C(=O)N(C)[C@@H](C(C)C)C(=O)O[C@H](C(C)C)C(=O)N(C)[C@@H](C(C)C)C(=O)O[C@H](C(C)C)C(=O)N1C", ">100 µM"),
    ("CC[C@H](C)[C@H]1C(=O)O[C@H](C(C)C)C(=O)N(C)[C@@H]([C@@H](C)CC)C(=O)O[C@H](C(C)C)C(=O)N(C)[C@@H]([C@@H](C)CC)C(=O)O[C@H](C(C)C)C(=O)N1C", ">100 µM"),
    ("CC[C@H](C)[C@H]1C(=O)O[C@H](C(C)C)C(=O)N(C)[C@@H]([C@@H](C)CC)C(=O)O[C@H](C(C)C)C(=O)N(C)[C@@H](C(C)C)C(=O)O[C@H](C(C)C)C(=O)N1C", ">100 µM"),
]

###

# MIC, B. subtilis NR per entry for Nisin-resistant B. subtilis (DSMZ 347)

# smiles entry, system tested, MIC, B. subtilis NR
rows = [
    ("CC(C)[C@H]1C(=O)O[C@H](C(C)C)C(=O)N(C)[C@@H](C(C)C)C(=O)O[C@H](C(C)C)C(=O)N(C)[C@@H](C(C)C)C(=O)O[C@H](C(C)C)C(=O)N1C", "Nisin-resistant B. subtilis (DSMZ 347)", ">100 µM"),
    ("CC(C)[C@H]1OC(=O)[C@H](Cc2ccccc2)N(C)C(=O)[C@@H](C(C)C)OC(=O)[C@H](Cc2ccccc2)N(C)C(=O)[C@@H](C(C)C)OC(=O)[C@H](Cc2ccccc2)N(C)C1=O", "Nisin-resistant B. subtilis (DSMZ 347)", "6.25 to 12.5 µM"),
    ("CC[C@H](C)[C@H]1C(=O)O[C@H](C(C)C)C(=O)N(C)[C@@H](C(C)C)C(=O)O[C@H](C(C)C)C(=O)N(C)[C@@H](C(C)C)C(=O)O[C@H](C(C)C)C(=O)N1C", "Nisin-resistant B. subtilis (DSMZ 347)", "50 µM"),
    ("CC[C@H](C)[C@H]1C(=O)O[C@H](C(C)C)C(=O)N(C)[C@@H]([C@@H](C)CC)C(=O)O[C@H](C(C)C)C(=O)N(C)[C@@H]([C@@H](C)CC)C(=O)O[C@H](C(C)C)C(=O)N1C", "Nisin-resistant B. subtilis (DSMZ 347)", "6.25 to 12.5 µM"),
    ("CC[C@H](C)[C@H]1C(=O)O[C@H](C(C)C)C(=O)N(C)[C@@H]([C@@H](C)CC)C(=O)O[C@H](C(C)C)C(=O)N(C)[C@@H](C(C)C)C(=O)O[C@H](C(C)C)C(=O)N1C", "Nisin-resistant B. subtilis (DSMZ 347)", "25 µM"),
]

###

The following molecules are listed with their measured IC50 values.
- Test system: HUVEC (human normal endothelial cells)
- Type: cell-based
- measurement parameters: 48 h exposure, 0-100 µM, resazurin fluorescence; means ± S.D, n = 3; read-out: IC50 on cell viability, HUVEC

# smiles entry, IC50 / µM
records = [
    ("CC[C@H](C)[C@H]1C(=O)O[C@H](C(C)C)C(=O)N(C)[C@@H]([C@@H](C)CC)C(=O)O[C@H](C(C)C)C(=O)N(C)[C@@H]([C@@H](C)CC)C(=O)O[C@H](C(C)C)C(=O)N1C", 2.8),
    ("CC(C)[C@H]1C(=O)O[C@H](C(C)C)C(=O)N(C)[C@@H](C(C)C)C(=O)O[C@H](C(C)C)C(=O)N(C)[C@@H](C(C)C)C(=O)O[C@H](C(C)C)C(=O)N1C", 17.3),
    ("CC[C@H](C)[C@H]1C(=O)O[C@H](C(C)C)C(=O)N(C)[C@@H]([C@@H](C)CC)C(=O)O[C@H](C(C)C)C(=O)N(C)[C@@H](C(C)C)C(=O)O[C@H](C(C)C)C(=O)N1C", 4.6),
    ("CC[C@H](C)[C@H]1C(=O)O[C@H](C(C)C)C(=O)N(C)[C@@H](C(C)C)C(=O)O[C@H](C(C)C)C(=O)N(C)[C@@H](C(C)C)C(=O)O[C@H](C(C)C)C(=O)N1C", 7),
]

All values here come from paper PMC6784244.
